Entry source: ChEMBL document CHEMBL2176989

measured.target: Cytochrome P450 3A4 (Homo sapiens, UniProt P08684)
Sequence (P08684 whole entry): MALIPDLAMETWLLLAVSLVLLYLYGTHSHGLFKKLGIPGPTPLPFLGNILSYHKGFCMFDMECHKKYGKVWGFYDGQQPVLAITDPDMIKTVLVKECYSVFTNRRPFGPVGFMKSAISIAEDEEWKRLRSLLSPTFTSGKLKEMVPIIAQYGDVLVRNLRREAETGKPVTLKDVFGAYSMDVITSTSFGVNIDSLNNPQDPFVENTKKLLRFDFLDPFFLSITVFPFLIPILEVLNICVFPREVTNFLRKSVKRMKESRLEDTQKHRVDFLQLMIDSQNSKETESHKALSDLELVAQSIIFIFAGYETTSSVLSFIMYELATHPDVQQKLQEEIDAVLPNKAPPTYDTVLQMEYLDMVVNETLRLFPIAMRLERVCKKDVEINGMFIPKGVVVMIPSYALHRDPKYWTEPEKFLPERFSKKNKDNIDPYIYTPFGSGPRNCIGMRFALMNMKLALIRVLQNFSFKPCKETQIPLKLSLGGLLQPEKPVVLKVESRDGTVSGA
pIC50: −log10 of the molar value.
metric.name: pIC50

1. COc1ccc(S(=O)(=O)n2cc(C)c3cc(Cl)ccc32)cc1NC1CCN(C)CC1 5.19

###

protocol.details: Oral bioavailability in fasted Wistar rat at 5 mg/kg
Format: ADME, organism-based
study.conditions: in vivo
metric.name: bioavailability

1) COc1ccc(S(=O)(=O)n2cc(C)c3cc(Cl)cnc32)cc1NC1CCN(C)CC1 29%

###

protocol.details: AUC (0 to 24 hrs) in fasted beagle dog at 3 mg/kg, po
Assay type: ADME, organism-based, Canis lupus familiaris
Parameters: time < 24 hr, dose 3 mg/kg, route oral
study.conditions: plasma
metric.name: AUC(0-t) at 24 h (ng·h/mL)

1) COc1ccc(S(=O)(=O)n2cc(C)c3cc(Cl)cnc32)cc1NC1CCN(C)CC1 3630
